Test system: M14 melanoma
Test: NCI tumour cell line growth inhibition, 48 h; in the data active means GI50 below about 0.43 µM; inactive means the rest
Can you answer with just one of these options? active, inactive

Worked examples follow.
# compound, class-name
measured = [
    ("C=[CH][Sn]([CH]=C)([S]c1cccc2cccnc12)[S]c1cccc2cccnc12", "active"),
    ("COc1cc(-c2nn(-c3cccc(NC(=O)Nc4cccc(C(F)(F)F)c4)c3)cc2-c2ccncc2)ccc1Cl", "inactive"),
    ("COc1ccc(C(=S)N(C)NC(=O)CC(=O)NN(C)C(=S)c2ccc(OC)cc2)cc1", "inactive"),
    ("O=C(OCC1OC(n2cc(C(F)(F)F)c(=O)[nH]c2=O)CC1OC(=O)c1ccc([N+](=O)[O-])cc1)c1ccc([N+](=O)[O-])cc1 (stereo not drawn)", "inactive"),
    ("C#CC[C@@H]1C[C@]2(C)[C@H]3CC[C@@H]4[C@H]5C(C(=C)C)CC[C@]5(C(=O)NCCCCN)CC[C@@]4(C)[C@]3(C)CC[C@H]2C(C)(C)[C@H]1OC(C)=O (stereo partly drawn)", "inactive"),
    ("CC(C)N(CCCNC(=O)Nc1ccc(C(C)(C)C)cc1)C[C@H]1O[C@@H](n2ccc3c(N)ncnc32)[C@H](O)[C@@H]1O", "inactive"),
]

input: # fetch the recorded call for Cc1oc2c(C(=O)N/N=C\c3ccc(O)cc3O)c[nH]c2c1C here
output: inactive

input: Record: CCc1ccc(C(=O)/C=C/C23c4ccccc4C(c4ccccc42)C2C(=O)NC(=O)C23)cc1 (stereo not drawn)
output: inactive
